Source listed as patent US8175860B2.

Biological target: HpSK (H. pylori shikimate kinase) (Helicobacter pylori)
Sequence (P56073 whole entry): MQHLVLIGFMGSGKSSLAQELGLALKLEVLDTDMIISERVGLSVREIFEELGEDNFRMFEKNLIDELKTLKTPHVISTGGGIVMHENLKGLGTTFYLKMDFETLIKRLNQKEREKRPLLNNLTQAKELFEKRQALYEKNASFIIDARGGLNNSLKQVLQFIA
Assay: Shikimate kinase inhibitor activity assay (pyruvate kinase/lactate dehydrogenase coupled), HpSK
Type: biochemical
Details: with respect to ATP, read-out: αKi, ATP
We begin with a simple list: items and their reported pKi.
Entry type: numeric. Quantity: pKi, the -log10 of concentration in molar units.

>  <Compound>
Nc1ccc2c(O)c(/N=N/c3ccc4c(O)cc(S(=O)(=O)O)cc4c3)c(S(=O)(=O)O)cc2c1 [Compound 8]

>  <System>
HpSK (H. pylori shikimate kinase) (Helicobacter pylori)

>  <pKi>
5.73

$$$$
>  <Compound>
N#C/C(=C/c1ccc(O)c(O)c1)C(=O)c1ccc(O)c(O)c1 [Compound 9, reference compound]

>  <System>
HpSK (H. pylori shikimate kinase) (Helicobacter pylori)

>  <pKi>
5.51

$$$$

INPUT: API: value(readout= pKi, system= HpSK (H. pylori shikimate kinase) (Helicobacter pylori), query= O=C(Nc1ccc2c(O)cc(S(=O)(=O)O)cc2c1)Nc1ccc2c(O)cc(S(=O)(=O)O)cc2c1 [Compound 5] )
OUTPUT: 5.76

###

IC50 by entry:
Biological target: MtSK (M. tuberculosis shikimate kinase) (Mycobacterium tuberculosis, UniProt P9WPY3)
Sequence (P9WPY3 whole entry): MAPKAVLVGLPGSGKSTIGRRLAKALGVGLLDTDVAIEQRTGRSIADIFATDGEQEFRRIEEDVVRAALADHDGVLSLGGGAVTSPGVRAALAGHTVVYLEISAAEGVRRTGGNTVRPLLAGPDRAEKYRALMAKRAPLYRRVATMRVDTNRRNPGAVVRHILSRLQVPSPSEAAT
Experiment: Shikimate kinase inhibitor activity assay (pyruvate kinase/lactate dehydrogenase coupled), MtSK
Assay type: biochemical
Details: MtSK

Record excerpt, results attached:
>  <Compound>
Cc1cc(/N=N/c2ccc(/N=N/c3ccc(/N=N/c4ccc(O)c(C(=O)O)c4)cc3)c(S(=O)(=O)O)c2C)c(N)cc1N [Compound 6]

>  <IC50>
≤ 10 µM

$$$$
>  <Compound>
O=C1c2cccc3cc([N+](=O)[O-])cc(c23)C(=O)N1c1ccc(S(=O)(=O)Nc2ccc(C(F)(F)F)cc2)cc1 [Compound 1]

>  <IC50>
> 50 µM

$$$$
>  <Compound>
O=C(O)c1cc(/N=N/c2ccc(/N=N/c3c(Cc4ccccc4)ccc4cc(S(=O)(=O)O)cc(O)c34)cc2)ccc1O [Compound 7]

>  <IC50>
≤ 10 µM

$$$$
>  <Compound>
O=C(Nc1ccc2c(O)cc(S(=O)(=O)O)cc2c1)Nc1ccc2c(O)cc(S(=O)(=O)O)cc2c1 [Compound 5]

>  <IC50>
2.76 µM

$$$$
>  <Compound>
O=C(NNC(=O)C1c2ccccc2Oc2ccccc21)c1cccc(F)c1 [Compound 3]

>  <IC50>
> 50 µM

$$$$
>  <Compound>
N=C(NO)c1ccc(Oc2cc(Cl)cc(Cl)c2)c([N+](=O)[O-])c1 [Compound 4]

>  <IC50>
> 50 µM

$$$$

Lab note: next compound to report on.
INPUT: Given Nc1ccc2c(O)c(/N=N/c3ccc4c(O)cc(S(=O)(=O)O)cc4c3)c(S(=O)(=O)O)cc2c1 [Compound 8] , state its recorded IC50.
OUTPUT: 1.55 µM

###

Target: MtSK (M. tuberculosis shikimate kinase) (Mycobacterium tuberculosis, UniProt P9WPY3)
Assay: Shikimate kinase inhibitor activity assay (pyruvate kinase/lactate dehydrogenase coupled), MtSK
Assay type: biochemical
Endpoint Label: pIC50
In simple prose, pIC50 is minus the logarithm base ten of a concentration in moles per litre.

INPUT: For the compound O=C1Nc2ccc(I)cc2/C1=C/c1cc(Br)c(O)c(Br)c1 [Compound 10, reference compound] , what pIC50 is on record?
OUTPUT: 4.53

###

Here, each record is paired with measured pKi data.
Molecular target: MtSK (M. tuberculosis shikimate kinase) (Mycobacterium tuberculosis)
Assay: Shikimate kinase inhibitor activity assay (pyruvate kinase/lactate dehydrogenase coupled), MtSK
Type: biochemical
Conditions: MtSK; with respect to shikimate; read-out: αKi, SKM
Scale explanation: pKi corresponds to minus log10 of a concentration expressed in moles per litre.

>  <Smiles Entry>
O=C(Nc1ccc2c(O)cc(S(=O)(=O)O)cc2c1)Nc1ccc2c(O)cc(S(=O)(=O)O)cc2c1

>  <Recorded Result>
5.57

$$$$

Proceed to the following item.
INPUT: Param item = Nc1ccc2c(O)c(/N=N/c3ccc4c(O)cc(S(=O)(=O)O)cc4c3)c(S(=O)(=O)O)cc2c1 ; retrieve measured pKi.
OUTPUT: 6.21

###

Form field: Ki (one value per entry).
Target: HpSK (H. pylori shikimate kinase) (Helicobacter pylori)
Assay: Shikimate kinase inhibitor activity assay (pyruvate kinase/lactate dehydrogenase coupled), HpSK
Type: biochemical
Conditions: with respect to shikimate, read-out: αKi, SKM
Respond with the bare value in µM.

>  <Molecule>
Nc1ccc2c(O)c(/N=N/c3ccc4c(O)cc(S(=O)(=O)O)cc4c3)c(S(=O)(=O)O)cc2c1 [Compound 8]

>  <Ki / µM>
1.82

$$$$
>  <Molecule>
N#C/C(=C/c1ccc(O)c(O)c1)C(=O)c1ccc(O)c(O)c1 [Compound 9, reference compound]

>  <Ki / µM>
5.35

$$$$

Turning to the following molecule.
INPUT: Given the molecule O=C(Nc1ccc2c(O)cc(S(=O)(=O)O)cc2c1)Nc1ccc2c(O)cc(S(=O)(=O)O)cc2c1 [Compound 5] , what is its reported Ki?
OUTPUT: 12.8
